# Tested on: DU-145
# Study conditions: human
Measurement type: pIC50
On this scale, pIC50 is minus log10 of a concentration expressed in M (mol/L).

Fill blank: measured pIC50 of the compound CCCC(=O)OC[C@H]1c2c(c(OC(C)=O)c(C)c3c2OCO3)CC2[C@H]3c4c(cc(C)c(OC)c4OCOC)C[C@@H]([C@H](C#N)N21)N3C (some centres unmarked) [drawing 148] is ____.
7.00

Same question, CCCC(=O)OC[C@H]1c2c(c(OC(C)=O)c(C)c3c2OCO3)CC2[C@H]3c4c(cc(C)c(OC)c4OCOC)C[C@@H]([C@H](C#N)N21)N3C (some centres unmarked) [drawing 152] this time
9.10

Reference for the values: patent US8012975B2
